Data provenance: patent US20180340025A1

Could you please report measured Ranking, Binding data for the items listed next?
Assayed system: T1, human LAG-3 expressed on cells (human, UniProt P18627 23-525)
T1 construct: whole, on cells; Treated as one protein; the host cell is named under assay; also called LAG-3-expressing CHO cells; LAG-3-transfected CHO cells
T1 sequence (looked up): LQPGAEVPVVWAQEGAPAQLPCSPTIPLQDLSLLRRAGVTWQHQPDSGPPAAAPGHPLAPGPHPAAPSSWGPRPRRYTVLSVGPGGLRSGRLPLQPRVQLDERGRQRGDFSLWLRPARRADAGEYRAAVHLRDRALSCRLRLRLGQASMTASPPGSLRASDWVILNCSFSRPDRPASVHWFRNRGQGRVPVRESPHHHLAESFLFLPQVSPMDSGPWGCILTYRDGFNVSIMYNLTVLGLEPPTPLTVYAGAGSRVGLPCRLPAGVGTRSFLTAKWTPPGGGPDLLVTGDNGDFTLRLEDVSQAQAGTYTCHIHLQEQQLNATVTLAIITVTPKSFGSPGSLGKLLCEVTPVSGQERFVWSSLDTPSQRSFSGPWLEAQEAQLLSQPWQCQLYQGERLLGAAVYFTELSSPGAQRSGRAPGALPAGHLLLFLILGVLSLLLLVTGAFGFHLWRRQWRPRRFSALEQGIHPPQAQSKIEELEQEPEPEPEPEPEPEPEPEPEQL
Assay name: rank of the clone among the humanized clones by the FACS binding data on LAG-3-expressing cells
I only need the number, thanks.

Entry BAP050-hum09 (antibody, human IgG4 S228P, kappa, V domains shown, humanized IgG4(S228P)/kappa, transient CHO supernatant; also called humanized clone No. 09) VH: QVQLVQSGAEVKKPGASVKVSCKASGFTLTNYGMNWVRQARGQRLEWIGWINTDTGEPTYADDFKGRFVFSLDTSVSTAYLQICSLKAEDTAVYYCARNPPYYYGTNNAEAMDYWGQGTTVTVSS VL: DIQMTQSPSSLSASVGDRVTITCSSSQDISNYLNWYQQKPGKAPKLLIYYTSTLHLGIPPRFSGSGYGTDFTLTINNIESEDAAYYFCQQYYNLPWTFGQGTKVEIKR , Ranking, Binding data reported as 8

Form field Ranking, Binding data, entry BAP050-hum06 (antibody, human IgG4 S228P, kappa, V domains shown, humanized IgG4(S228P)/kappa, transient CHO supernatant) VH: EVQLVQSGAEVKKPGATVKISCKVSGFTLTNYGMNWVRQAPGQGLEWMGWINTDTGEPTYADDFKGRFVFSLDTSVSTAYLQICSLKAEDTAVYYCARNPPYYYGTNNAEAMDYWGQGTTVTVSS VL: DIVMTQTPLSLPVTPGEPASISCSSSQDISNYLNWYQQKPGQAPRLLIYYTSTLHLGVPSRFSGSGSGTEFTLTISSLQPDDFATYYCQQYYNLPWTFGQGTKVEIKR : 9

The recorded Ranking, Binding data for entry BAP050-hum02 (antibody, human IgG4 S228P, kappa, V domains shown, humanized IgG4(S228P)/kappa, transient CHO supernatant; also called humanized clone No. 02) VH: EVQLVQSGAEVKKPGATVKISCKVSGFTLTNYGMNWVRQAPGQGLEWMGWINTDTGEPTYADDFKGRFVFSLDTSVSTAYLQICSLKAEDTAVYYCARNPPYYYGTNNAEAMDYWGQGTTVTVSS VL: DIQMTQSPSSLSASVGDRVTITCSSSQDISNYLNWYQQKPGKAPKLLIYYTSTLHLGIPPRFSGSGYGTDFTLTINNIESEDAAYYFCQQYYNLPWTFGQGTKVEIKR equals 5

Looking up BAP050-hum04 (antibody, human IgG4 S228P, kappa, V domains shown, humanized IgG4(S228P)/kappa, transient CHO supernatant) VH: EVQLVQSGAEVKKPGATVKISCKVSGFTLTNYGMNWVRQAPGQGLEWMGWINTDTGEPTYADDFKGRFVFSLDTSVSTAYLQICSLKAEDTAVYYCARNPPYYYGTNNAEAMDYWGQGTTVTVSS VL: DIQMTQSPSSLSASVGDRVTITCSSSQDISNYLNWYLQKPGQSPQLLIYYTSTLHLGIPDRFSGSGSGTDFTLTISRLEPEDFAVYYCQQYYNLPWTFGQGTKVEIKR , I see its Ranking, Binding data listed as 8

The value of Ranking, Binding data measured for the binder BAP050-hum16 (antibody, human IgG4 S228P, kappa, V domains shown, humanized IgG4(S228P)/kappa, transient CHO supernatant) VH: EVQLVQSGAEVKKPGESLRISCKGSGFTLTNYGMNWVRQATGQGLEWMGWINTDTGEPTYADDFKGRVTISADKSISTAYLQWSSLKASDTAMYYCARNPPYYYGTNNAEAMDYWGQGTTVTVSS VL: EIVLTQSPDFQSVTPKEKVTITCSSSQDISNYLNWYQQKPGQAPRLLIYYTSTLHLGVPSRFSGSGSGTDFTLTISSLQPEDFATYYCQQYYNLPWTFGQGTKVEIKR turned out to be 20
